Data provenance: the supplement of paper PMC8728848

molecular target: Man(a1-6)Man; assay: glycan array binding signal (z-score within array); higher = stronger binding; conditions: glycan notation: IUPAC condensed, linker removed
This excerpt belongs to a sample that is enriched for the strongest signals.
Metric: glycan array binding signal (z-score)
Answers are plain numbers.

// each listed binder needs a value for glycan array binding signal (z-score)
1. RfpC (Mycobacterium tuberculosum), O07747 (protein) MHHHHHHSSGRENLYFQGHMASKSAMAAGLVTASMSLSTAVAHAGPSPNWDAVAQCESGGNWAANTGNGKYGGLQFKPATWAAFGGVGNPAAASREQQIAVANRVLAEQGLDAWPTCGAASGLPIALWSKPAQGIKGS
2. LecB LY19 (Pseudomonas aeruginosa) (protein) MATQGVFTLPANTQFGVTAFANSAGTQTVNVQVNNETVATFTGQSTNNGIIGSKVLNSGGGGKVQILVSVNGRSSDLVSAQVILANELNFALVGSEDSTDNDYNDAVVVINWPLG

Resp:
1: -0.622; 2: -0.329
